Molecular target: Neuraminidase (Influenza A virus, UniProt B4URF0)
Sequence (B4URF0 whole entry): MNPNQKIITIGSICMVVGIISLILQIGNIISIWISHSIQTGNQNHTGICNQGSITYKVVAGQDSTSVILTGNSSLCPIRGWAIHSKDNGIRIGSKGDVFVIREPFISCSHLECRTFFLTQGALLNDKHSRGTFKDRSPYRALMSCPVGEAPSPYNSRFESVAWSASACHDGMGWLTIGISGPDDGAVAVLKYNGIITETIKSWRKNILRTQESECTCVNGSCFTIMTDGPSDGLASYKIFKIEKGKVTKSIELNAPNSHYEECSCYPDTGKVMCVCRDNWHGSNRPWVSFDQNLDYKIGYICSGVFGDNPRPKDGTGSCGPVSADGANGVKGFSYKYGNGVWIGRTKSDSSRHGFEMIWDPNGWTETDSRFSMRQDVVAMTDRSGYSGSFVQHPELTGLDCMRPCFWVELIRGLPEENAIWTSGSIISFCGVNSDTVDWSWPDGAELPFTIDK
Experiment: Inhibition of Influenza A virus (A/turkey/Ontario/6,118/1968(H8N4)) neuraminidase after 30 mins by fluorescence analysis
measurement-name: pIC50
Formally, pIC50 is defined as -log10 of the concentration c, with c in mol/L.

Reported pIC50 of CCCCCCCC(=O)OC[C@@H](O)[C@@H](OC)[C@@H]1OC(C(=O)O)=C[C@H](NC(=N)N)[C@H]1NC(C)=O [LANINAMIVIR OCTANOATE] : 6.38

---

Target: Neuraminidase (Influenza A virus)
Assay: Inhibition of Influenza A virus (A/Aichi/169/2005(H1N1)) neuraminidase after 30 mins by fluorescence analysis
measurement-name: IC50 (nM)
Give the quantity in nM, number only.

Reported IC50 of CCCCCCCC(=O)OC[C@@H](O)[C@@H](OC)[C@@H]1OC(C(=O)O)=C[C@H](NC(=N)N)[C@H]1NC(C)=O [LANINAMIVIR OCTANOATE] : 664

---

Test: Inhibition of Influenza B virus (B/Ohio/01/2005(Victoria)) neuraminidase after 30 mins by fluorescence analysis
measurement-name: IC50 (nM)
Give the quantity in nM, number only.

// solved cases for IC50 follow
CO[C@@H]([C@@H]1OC(C(=O)O)=C[C@H](NC(=N)N)[C@H]1NC(C)=O)[C@H](O)CO: 30
CC(=O)N[C@H]1[C@H]([C@H](O)[C@H](O)CO)OC(C(=O)O)=C[C@@H]1NC(=N)N: 7.86

Could you now consider this next compound?
Reported IC50 of CCCCCCCC(=O)OC[C@@H](O)[C@@H](OC)[C@@H]1OC(C(=O)O)=C[C@H](NC(=N)N)[C@H]1NC(C)=O [LANINAMIVIR OCTANOATE] : 12800

---

Biological target: Neuraminidase (Influenza A virus, UniProt B4URF0)
Assay: Inhibition of Influenza A virus (A/R(duck/Mongolia/54/01-duck/Mongolia/47/01)([…])) neuraminidase after 30 mins by fluorescence analysis
measurement-name: IC50 (µM)
Give the quantity in µM, number only.

Reported IC50 of CCCCCCCC(=O)OC[C@@H](O)[C@@H](OC)[C@@H]1OC(C(=O)O)=C[C@H](NC(=N)N)[C@H]1NC(C)=O [LANINAMIVIR OCTANOATE] : 0.276

---

Experiment: Inhibition of Newcastle disease virus neuraminidase by spectrofluorometric analysis
Design: species or system avian paramyxovirus 1
measurement-name: IC50

Reported IC50 of CO[C@@H]([C@@H]1OC(C(=O)O)=C[C@H](NC(=N)N)[C@H]1NC(C)=O)[C@H](O)CO : > 100 µM

---

Assay: Inhibition of Influenza B virus (B/Shiga/31/2002(Yamagata)) neuraminidase after 30 mins by fluorescence analysis
// values below are reported IC50
Give the quantity in nM, number only.

CO[C@@H]([C@@H]1OC(C(=O)O)=C[C@H](NC(=N)N)[C@H]1NC(C)=O)[C@H](O)CO: 14
CC(=O)N[C@H]1[C@H]([C@H](O)[C@H](O)CO)OC(C(=O)O)=C[C@@H]1NC(=N)N: 4.9

Could you now consider this next compound?
Reported IC50 of CCCCCCCC(=O)OC[C@@H](O)[C@@H](OC)[C@@H]1OC(C(=O)O)=C[C@H](NC(=N)N)[C@H]1NC(C)=O [LANINAMIVIR OCTANOATE] : 10500

---

Target: Neuraminidase (Influenza A virus)
Assay: Inhibition of Influenza A virus (A/New Caledonia/20/1999(H1N1)) neuraminidase after 30 mins by fluorescence analysis
measurement-name: IC50 (nM)
Give the quantity in nM, number only.

Reported IC50 of CCCCCCCC(=O)OC[C@@H](O)[C@@H](OC)[C@@H]1OC(C(=O)O)=C[C@H](NC(=N)N)[C@H]1NC(C)=O [LANINAMIVIR OCTANOATE] : 666

---

Biological target: Neuraminidase (Influenza A virus)
Assay: Inhibition of Influenza A virus (A/duck/Hokkaido/84/2002(H5N3)) neuraminidase after 30 mins by fluorescence analysis
measurement-name: IC50 (nM)
Give the quantity in nM, number only.

Reported IC50 of CCCCCCCC(=O)OC[C@@H](O)[C@@H](OC)[C@@H]1OC(C(=O)O)=C[C@H](NC(=N)N)[C@H]1NC(C)=O [LANINAMIVIR OCTANOATE] : 456

---

Molecular target: Neuraminidase (Influenza A virus, UniProt B4URF0)
Experiment: Inhibition of Influenza A virus (A/Tokushima/1/2005(H3N2)) neuraminidase after 30 mins by fluorescence analysis
measurement-name: pIC50
Formally, pIC50 is defined as -log10 of the concentration c, with c in mol/L.

Reported pIC50 of CCCCCCCC(=O)OC[C@@H](O)[C@@H](OC)[C@@H]1OC(C(=O)O)=C[C@H](NC(=N)N)[C@H]1NC(C)=O [LANINAMIVIR OCTANOATE] : 6.88

---

Test: Inhibition of Influenza B virus (B/Brisbane/32/2002(Victoria) neuraminidase after 30 mins by fluorescence analysis
measurement-name: IC50 (nM)
Give the quantity in nM, number only.

CO[C@@H]([C@@H]1OC(C(=O)O)=C[C@H](NC(=N)N)[C@H]1NC(C)=O)[C@H](O)CO: 30.5
CCCCCCCC(=O)OC[C@@H](O)[C@@H](OC)[C@@H]1OC(C(=O)O)=C[C@H](NC(=N)N)[C@H]1NC(C)=O [LANINAMIVIR OCTANOATE]: 9890

Could you now consider this next molecule?
Reported IC50 of CC(=O)N[C@H]1[C@H]([C@H](O)[C@H](O)CO)OC(C(=O)O)=C[C@@H]1NC(=N)N : 7.78

---

Biological target: UniProt:B4URF0
Experiment: Inhibition of Influenza A virus (A/Aichi/193/2004(H1N1)) neuraminidase after 30 mins by fluorescence analysis
measurement-name: IC50 (nM)
Give the quantity in nM, number only.

Reported IC50 of CCCCCCCC(=O)OC[C@@H](O)[C@@H](OC)[C@@H]1OC(C(=O)O)=C[C@H](NC(=N)N)[C@H]1NC(C)=O [LANINAMIVIR OCTANOATE] : 983

---

Target: Neuraminidase (Influenza A virus, UniProt B4URF0)
Test: Inhibition of Influenza A virus (A/duck/England/1/1956(H11N6)) neuraminidase after 30 mins by fluorescence analysis
measurement-name: IC50 (µM)
Give the quantity in µM, number only.

Reported IC50 of CCCCCCCC(=O)OC[C@@H](O)[C@@H](OC)[C@@H]1OC(C(=O)O)=C[C@H](NC(=N)N)[C@H]1NC(C)=O [LANINAMIVIR OCTANOATE] : 0.262

---

Target: Neuraminidase (Influenza A virus, UniProt B4URF0)
Assay: Inhibition of Influenza A virus (A/Aichi/2/1968(H3N2)) neuraminidase after 30 mins by fluorescence analysis
measurement-name: IC50 (µM)
Give the quantity in µM, number only.

Reported IC50 of CCCCCCCC(=O)OC[C@@H](O)[C@@H](OC)[C@@H]1OC(C(=O)O)=C[C@H](NC(=N)N)[C@H]1NC(C)=O [LANINAMIVIR OCTANOATE] : 0.164

---

Target: Neuraminidase (Influenza A virus, UniProt B4URF0)
Assay: Inhibition of Influenza A virus (A/duck/Memphis/546/1974(H11N9)) neuraminidase after 30 mins by fluorescence analysis
measurement-name: IC50

Reported IC50 of CCCCCCCC(=O)OC[C@@H](O)[C@@H](OC)[C@@H]1OC(C(=O)O)=C[C@H](NC(=N)N)[C@H]1NC(C)=O [LANINAMIVIR OCTANOATE] : 356 nM

---

Target: Neuraminidase (Influenza A virus)
Test: Inhibition of Influenza A virus (A/Yamagata/57/2002(H1N1)) neuraminidase after 30 mins by fluorescence analysis
measurement-name: IC50 (nM)
Give the quantity in nM, number only.

Reported IC50 of CCCCCCCC(=O)OC[C@@H](O)[C@@H](OC)[C@@H]1OC(C(=O)O)=C[C@H](NC(=N)N)[C@H]1NC(C)=O [LANINAMIVIR OCTANOATE] : 1170

---

Test: Inhibition of Influenza B virus (B/Yamagata/87/2004(Yamagata)) neuraminidase after 30 mins by fluorescence analysis
measurement-name: IC50 (µM)
Give the quantity in µM, number only.

CCCCCCCC(=O)OC[C@@H](O)[C@@H](OC)[C@@H]1OC(C(=O)O)=C[C@H](NC(=N)N)[C@H]1NC(C)=O [LANINAMIVIR OCTANOATE]: 7.79

Reported IC50 of CO[C@@H]([C@@H]1OC(C(=O)O)=C[C@H](NC(=N)N)[C@H]1NC(C)=O)[C@H](O)CO [LANINAMIVIR] : 0.0167

Reported IC50 of CC(=O)N[C@H]1[C@H]([C@H](O)[C@H](O)CO)OC(C(=O)O)=C[C@@H]1NC(=N)N [ZANAMIVIR] : 0.00582

---

Target: Neuraminidase (Influenza A virus, UniProt B4URF0)
Assay: Inhibition of Influenza A virus (A/Puerto Rico/8/1934(H1N1)) neuraminidase after 30 mins by fluorescence analysis
measurement-name: IC50 (µM)
Give the quantity in µM, number only.

Reported IC50 of CCCCCCCC(=O)OC[C@@H](O)[C@@H](OC)[C@@H]1OC(C(=O)O)=C[C@H](NC(=N)N)[C@H]1NC(C)=O [LANINAMIVIR OCTANOATE] : 0.931
